Value source: ChEMBL document CHEMBL4393665

systemUnderTest: ATP-dependent translocase ABCB1 (Homo sapiens)
Sequence (P08183 whole entry): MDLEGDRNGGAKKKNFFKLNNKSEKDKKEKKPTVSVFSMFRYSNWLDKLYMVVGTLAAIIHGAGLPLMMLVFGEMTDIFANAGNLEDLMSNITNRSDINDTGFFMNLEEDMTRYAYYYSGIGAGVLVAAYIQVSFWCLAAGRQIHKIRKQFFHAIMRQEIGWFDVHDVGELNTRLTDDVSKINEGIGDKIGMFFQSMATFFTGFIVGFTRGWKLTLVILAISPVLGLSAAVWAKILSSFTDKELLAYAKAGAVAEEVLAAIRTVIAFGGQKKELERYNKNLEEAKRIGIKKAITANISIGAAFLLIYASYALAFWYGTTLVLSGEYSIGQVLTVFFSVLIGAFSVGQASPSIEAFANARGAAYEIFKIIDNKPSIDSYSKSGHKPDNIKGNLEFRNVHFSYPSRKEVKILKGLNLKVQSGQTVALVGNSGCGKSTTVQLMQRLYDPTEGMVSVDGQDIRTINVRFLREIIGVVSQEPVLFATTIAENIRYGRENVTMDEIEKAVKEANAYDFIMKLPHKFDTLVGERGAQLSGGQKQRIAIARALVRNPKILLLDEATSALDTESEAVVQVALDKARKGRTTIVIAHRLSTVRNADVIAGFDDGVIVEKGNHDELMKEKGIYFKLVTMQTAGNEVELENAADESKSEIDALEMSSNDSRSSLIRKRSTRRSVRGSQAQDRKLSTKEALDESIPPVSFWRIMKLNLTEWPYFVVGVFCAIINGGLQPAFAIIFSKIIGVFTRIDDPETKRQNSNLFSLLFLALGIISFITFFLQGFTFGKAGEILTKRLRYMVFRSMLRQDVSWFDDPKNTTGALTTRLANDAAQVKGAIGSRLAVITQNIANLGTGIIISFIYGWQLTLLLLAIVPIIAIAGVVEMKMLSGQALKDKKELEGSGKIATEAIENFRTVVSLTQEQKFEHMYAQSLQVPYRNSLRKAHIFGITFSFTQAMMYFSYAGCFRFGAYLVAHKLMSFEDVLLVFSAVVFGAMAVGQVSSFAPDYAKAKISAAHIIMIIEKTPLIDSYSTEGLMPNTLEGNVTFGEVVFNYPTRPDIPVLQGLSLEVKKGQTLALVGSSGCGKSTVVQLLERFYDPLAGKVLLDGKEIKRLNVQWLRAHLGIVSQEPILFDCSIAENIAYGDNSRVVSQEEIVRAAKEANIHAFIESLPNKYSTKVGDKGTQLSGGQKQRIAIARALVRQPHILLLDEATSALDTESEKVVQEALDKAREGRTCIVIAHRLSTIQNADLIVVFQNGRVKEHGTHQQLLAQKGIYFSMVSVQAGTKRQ
experimentDescription: Inhibition of P-glycoprotein (unknown origin) in MDCK-MDR1 assessed as inhibtion of calcein-AM transport incubated for 30 mins by fluorescence assay
propertyMeasured: EC50 (nM)

> print(dat)
                               smilesstring  numericresult
1  COc1cc(/C=C/C(=O)OCCCN(C)CCCCCCCOC(=O)c2c3ccccc3cc3ccccc23)cc(OC)c1OC            260
2  COc1cc(/C=C/C(=O)OCCCCCCCN(C)CCCOC(=O)c2cc(OC)c(OC)c(OC)c2)cc(OC)c1OC            210
3  COc1cc(/C=C/C(=O)OCCN(C)CCCCCCCCOC(=O)c2cc(OC)c(OC)c(OC)c2)cc(OC)c1OC            220
